studySystem: T1, human CD3 (human, UniProt P07766 23-207; P04234 22-171; P09693 23-182)
T1 construct: whole, on cells; also called hCD3; CD3 on Jurkat cells
T1 sequence (P07766 23-207, chain 1 of 3): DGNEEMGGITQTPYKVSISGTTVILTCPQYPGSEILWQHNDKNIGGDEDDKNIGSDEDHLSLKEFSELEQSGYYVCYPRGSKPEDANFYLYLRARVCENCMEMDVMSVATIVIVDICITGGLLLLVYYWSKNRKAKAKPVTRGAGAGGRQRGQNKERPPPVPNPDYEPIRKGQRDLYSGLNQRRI
T1 sequence (P04234 22-171, chain 2 of 3): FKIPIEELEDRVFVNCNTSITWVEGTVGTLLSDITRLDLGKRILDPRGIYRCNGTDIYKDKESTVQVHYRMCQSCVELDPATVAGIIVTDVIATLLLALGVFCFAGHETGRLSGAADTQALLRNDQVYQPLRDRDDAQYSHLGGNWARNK
T1 sequence (P09693 23-182, chain 3 of 3): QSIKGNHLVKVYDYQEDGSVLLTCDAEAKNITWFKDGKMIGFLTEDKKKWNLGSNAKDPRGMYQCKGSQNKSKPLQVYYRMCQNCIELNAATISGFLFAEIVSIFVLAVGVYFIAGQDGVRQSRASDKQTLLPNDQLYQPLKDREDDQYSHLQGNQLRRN
methodNotes: FACS on Jurkat cells
readoutName: Top FACS signal

binder	readoutName	numericValue
hu40E9-L2H3-N93R.L (antibody, V domains shown) VH: EVQLVQSGAEVKKPGSSVKVSCKASGYTFSSYVIHWVRQAPGQGLEWMGYINPYNDVIKYNEKFKGRVTLTSDKSTSTAYMELSSLRSEDTAVYYCARDSYYSYDGFAYWGQGTLVTVSS VL: EIVLTQSPDFQSVTPKEKVTITCSASSSVSYMHWYQQKPDQSPKRLIYDTSKLASGVPSRFSGSGSGTDFTLTINSLEAEDAATYYCQQWSSRPPTFGGGTKVEIK	Top FACS signal	1420
hu40E9-L2H3-D99E.H (antibody, V domains shown) VH: EVQLVQSGAEVKKPGSSVKVSCKASGYTFSSYVIHWVRQAPGQGLEWMGYINPYNDVIKYNEKFKGRVTLTSDKSTSTAYMELSSLRSEDTAVYYCARESYYSYDGFAYWGQGTLVTVSS VL: EIVLTQSPDFQSVTPKEKVTITCSASSSVSYMHWYQQKPDQSPKRLIYDTSKLASGVPSRFSGSGSGTDFTLTINSLEAEDAATYYCQQWSSNPPTFGGGTKVEIK	Top FACS signal	957
hu40E9-L2H3-N93S.L (antibody, V domains shown) VH: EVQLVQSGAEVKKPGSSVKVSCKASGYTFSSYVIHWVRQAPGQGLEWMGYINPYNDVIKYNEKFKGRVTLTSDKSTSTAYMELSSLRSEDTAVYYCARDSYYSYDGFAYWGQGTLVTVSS VL: EIVLTQSPDFQSVTPKEKVTITCSASSSVSYMHWYQQKPDQSPKRLIYDTSKLASGVPSRFSGSGSGTDFTLTINSLEAEDAATYYCQQWSSSPPTFGGGTKVEIK	Top FACS signal	1360

Data provenance: patent US20250223358A1
